- assayComment: Solubility in Miglyol 812
- Assay type: physicochemical
- reportedConditions: Miglyol 812, oil or lipid
endpointLabel: solubility
# include the unit after the value

Param item = CC(=O)O[C@@]12CO[C@@H]1C[C@H](O)[C@@]1(C)C(=O)[C@H](O)C3=C(C)[C@@H](OC(=O)[C@H](O)[C@@H](NC(=O)OC(C)(C)C)c4ccccc4)C[C@@](O)([C@@H](OC(=O)c4ccccc4)[C@H]21)C3(C)C ; retrieve measured solubility. 36.1 mg/mL
